B1: Far upstream element-binding protein 3, residues 75 to 150; numbered along this chain, Q96I24 (parent)
chain: RTVITEEFKVPDKMVGFIIGRGGEQISRIQAESGCKIQIASESSGIPERPCVLTGTPESIEQAKRLLGQIVDRCRN

# Variants of: B1
# run.description: abundance fitness (aPCA) (normalised: wild type 0, dead -1); higher = more abundant; growth selection in yeast, the domain comes from the species named
# assay.context: Homo sapiens
abundance fitness listing for selected variants.

primary.sequence | abundance fitness
RTVITEEFKVPDKMVGFIIGRGGEQISRIQAESGCKIQIASESSGIPERPCVLTGRPESIEQAKRLLGQIVDRCRN | -0.107
RTVITEEFKVPDKMVGFIIGRGGEQISRIQAEKGCKIQIASESSGIPERPCVLTGTPESIEQAKRLLGQIVDRCRN | -0.787
RTVITEEFKVPDKMPGFIIGRGGEQISRIQAESGCKIQIASESSGIPERPCVLTGTPESIEQAKRLLGQIVDRCRN | -0.37
RTVITEEFKVRDKMVGFIIGRGGEQISRIQAESGCKIQIASESSGIPERPCVLTGTPESIEQAKRLLGQIVDRCRN | -0.288
RTVITEEFKVPDKMVGFIIGRGGEQISRIQAESGCKIQIASESSGHPERPCVLTGTPESIEQAKRLLGQIVDRCRN | 0.02
RTVITEEFKVPDKMVGHIIGRGGEQISRIQAESGCKIQIASESSGIPERPCVLTGTPESIEQAKRLLGQIVDRCRN | -0.026
RTVITEEFKVPDKMVGFIIGRGGEQISRIQAESGCKIQIASESSGTPERPCVLTGTPESIEQAKRLLGQIVDRCRN | 0.032
RTVITEEFKVPDKMVGFIIGRGGEQISRIQAESGCKIQIASESSGIPERPCVLTGTPESIEQAKRLLGQIVARCRN | -0.052
RTVITEEFKVPDKMVGFIIGRGGEQISRIQAESGCKIQIASESSWIPERPCVLTGTPESIEQAKRLLGQIVDRCRN | -0.15
RTVFTEEFKVPDKMVGFIIGRGGEQISRIQAESGCKIQIASESSGIPERPCVLTGTPESIEQAKRLLGQIVDRCRN | -0.095
RTVITEEFKVPDKMVGFIIGRGGEQIGRIQAESGCKIQIASESSGIPERPCVLTGTPESIEQAKRLLGQIVDRCRN | 0.004
RTVITEEFKVPDKMVGFIIGRGGEQISRIQAESGCKIQIASESSGIPERPCVLTDTPESIEQAKRLLGQIVDRCRN | -0.905
RWVITEEFKVPDKMVGFIIGRGGEQISRIQAESGCKIQIASESSGIPERPCVLTGTPESIEQAKRLLGQIVDRCRN | -0.133
RTVITEEFKVPDKMVGFIIGRGGEQISRIQAESGCKIQIASESSGIPERPCVLTGTPESSEQAKRLLGQIVDRCRN | -0.836
RTVITEEFKVPDKMVGFIIGRGGEQISRIQAESGCKIQIASESSGIPERPCVLTGTPESLEQAKRLLGQIVDRCRN | -0.119
RTVITEEFKVPDKMVGFIIGRGGEQISRIQAESGCKMQIASESSGIPERPCVLTGTPESIEQAKRLLGQIVDRCRN | -0.232
RTVITEEFKVPDKMVGFIIGRGGEQISRIQAESGCKNQIASESSGIPERPCVLTGTPESIEQAKRLLGQIVDRCRN | -0.69
RTVITEEFKVPDKMVGFIIGRGGEQISRIQAESGCKIQIASESSGIPERPCVLTGTRESIEQAKRLLGQIVDRCRN | -0.013
RTVITEEFKVPDKMVGFIIGRGGEQISRIQAESGCKIQIASESSGMPERPCVLTGTPESIEQAKRLLGQIVDRCRN | -0.053
RTVITEEFKVPSKMVGFIIGRGGEQISRIQAESGCKIQIASESSGIPERPCVLTGTPESIEQAKRLLGQIVDRCRN | -0.027
RTVITEEFKVPDKMVGFIIGRGGEQIFRIQAESGCKIQIASESSGIPERPCVLTGTPESIEQAKRLLGQIVDRCRN | -0.153
RTVITEEFKVPDKMVGFIIGRGGEQISRIQAESGCSIQIASESSGIPERPCVLTGTPESIEQAKRLLGQIVDRCRN | -0.034
